system: OVCAR4; assay: Euclidean distance of Cell Painting phenotypic profile (signed KS, 77 features) to DMSO centroid (dimensionless distance); 5 or 10 uM (library dependent); higher = stronger phenotypic change vs DMSO (phenoactivity); conditions: 48 h
Structures can show the parent of a compound that is named as a salt.

compound	system.under.test	Euclidean distance
COc1cc([C@@H]2c3cc4c(cc3[C@@H](O[C@@H]3O[C@@H]5CO[C@@H](C)O[C@H]5[C@H](O)[C@H]3O)[C@H]3COC(=O)[C@H]23)OCO4)cc(OC)c1O [Etoposide]	OVCAR4	3.21
COc1ccc2[nH]c([S+]([O-])Cc3ncc(C)c(OC)c3C)nc2c1 (stereo unspecified) [Omeprazole]	OVCAR4	2.98
CCCC(=O)OCOC(=O)C1=C(C)NC(C)=C(C(=O)OC)C1c1cccc(Cl)c1Cl (stereo unspecified) [Clevidipine Butyrate]	OVCAR4	1.78
Cc1cccc(C)c1NC(=O)c1cc(S(N)(=O)=O)c(Cl)cc1O [Xipamide]	OVCAR4	1.08
C[n+]1ccccc1C=NO [Pralidoxime Iodide]	OVCAR4	0.907
C[C@@H]1C[C@H]2[C@@H]3CCC4=CC(=O)C=C[C@]4(C)[C@@]3(F)[C@@H](O)C[C@]2(C)[C@H]1C(=O)CO	OVCAR4	2.03
CC(C)COCC(CN(Cc1ccccc1)c1ccccc1)N1CCCC1 (stereo unspecified) [Bepridil hydrochloride]	OVCAR4	1.73
Nc1nc(O)c2ncn(CCC(CO)CO)c2n1	OVCAR4	1.17
O=C(O)P(=O)(O)O [Foscarnet Sodium]	OVCAR4	1.11
CC#CC(=O)N1CCC[C@H]1c1nc(-c2ccc(C(=O)Nc3ccccn3)cc2)c2c(N)nccn12	OVCAR4	1.22
CC(C)(Oc1ccc(CCNC(=O)c2ccc(Cl)cc2)cc1)C(=O)O [Bezafibrate]	OVCAR4	1.71
CC[C@H](NC(=O)[C@H](C)NC)C(=O)N1C[C@@H](O)C[C@H]1Cc1c(-c2[nH]c3cc(F)ccc3c2C[C@@H]2C[C@H](O)CN2C(=O)[C@H](CC)NC(=O)[C@H](C)NC)[nH]c2cc(F)ccc12	OVCAR4	1.97
COc1cc2nc(N3CCN(C(=O)C4COc5ccccc5O4)CC3)nc(N)c2cc1OC (stereo unspecified)	OVCAR4	1.18
COc1ccc(CN(CCN(C)C)c2ncccn2)cc1	OVCAR4	1.89
O=C(/C=C/c1ccc(O)c(O)c1)O[C@H](Cc1ccc(O)c(O)c1)C(=O)O	OVCAR4	0.722
O=C(Nc1cccc(Cl)c1)Nc1ncc(CCNc2ncnc3ccsc23)s1 [SNS-314 Mesylate]	OVCAR4	1
